For each of the compounds below, state its relative cell number.
Tested on: SKBR3
Experiment: relative cell number vs DMSO control (72 h) (% of DMSO); higher = less growth inhibition (more cells)
Details: sgRNA knockout: sgNT, 100 nM

In the examples that follow, each entry is paired with its recorded relative cell number.
>>> val("COc1cc2nccc(Oc3ccc(NC(=O)C4(C(=O)Nc5ccc(F)cc5)CC4)cc3)c2cc1OC [Cabozantinib]")
130
>>> val("Cc1cc2c(F)c(Oc3ncnn4cc(OC[C@@H](C)O)c(C)c34)ccc2[nH]1 [Brivanib]")
61.5
>>> val("OCCn1cc(-c2ccc3c(c2)CC/C3=N\\O)c(-c2ccncc2)n1 [GDC0879]")
151
>>> val("O=C1CCC(N2C(=O)c3ccccc3C2=O)C(=O)N1 (stereo not given) [Thalidomide]")
59.4
>>> val("CC(C)(C)c1nc(-c2cccc(NS(=O)(=O)c3c(F)cccc3F)c2F)c(-c2ccnc(N)n2)s1 [Dabrafenib]")
121
>>> val("C[C@]12CC[C@@H]3c4ccc(O)cc4C[C@@H](CCCCCCCCC[S+]([O-])CCCC(F)(F)C(F)(F)F)[C@H]3[C@@H]1CC[C@@H]2O (stereo not given in full) [Fulvestrant]")
48.8
>>> val("Fc1ccc(CNc2ncnc3ccc(F)cc23)cc1 [Spautin1]")
85.3
>>> val("O=C(O)CC[C@H]1CC[C@@](c2cc(F)ccc2F)(S(=O)(=O)c2ccc(Cl)cc2)CC1 [MK0752]")
114
>>> val("COc1cc2nccc(Oc3ccc(NC(=O)NC4CC4)c(Cl)c3)c2cc1C(N)=O [Lenvatinib]")
92.6
>>> val("CC(=O)c1c(C)c2cnc(Nc3ccc(N4CCNCC4)cn3)nc2n(C2CCCC2)c1=O [Palbociclib]")
52.1

Quick request: relative cell number for each listed item, please.
1. CNC(=O)c1cc(Oc2ccc(NC(=O)Nc3ccc(Cl)c(C(F)(F)F)c3)c(F)c2)ccn1 [Regorafenib]
2. CCCc1nn(C)c2c(=O)[nH]c(-c3cc(S(=O)(=O)N4CCN(C)CC4)ccc3OCC)nc12 [Sildenafil]
3. CN(C)C/C=C/C(=O)Nc1cc2c(Nc3ccc(F)c(Cl)c3)ncnc2cc1O[C@H]1CCOC1 [Afatinib]

98.8
91.7
34.5

Quick request: relative cell number for each listed item, please.
1. C=CC[C@@H]1/C=C(\C)C[C@H](C)C[C@H](OC)[C@H]2O[C@@](O)(C(=O)C(=O)N3CCCC[C@H]3C(=O)O[C@H](/C(C)=C/[C@@H]3CC[C@@H](O)[C@H](OC)C3)[C@H](C)[C@@H](O)CC1=O)[C@H](C)C[C@@H]2OC [Tacrolimus]
2. C=CCn1c(=O)c2cnc(Nc3ccc(N4CCN(C)CC4)cc3)nc2n1-c1cccc(C(C)(C)O)n1 [MK1775]

1. 90.6
2. 108

----------
System: BT-20
Assay: relative cell number vs DMSO control (72 h) (% of DMSO); higher = less growth inhibition (more cells)
Conditions: sgRNA knockout: sgNT, 100 nM
Response key: MET means relative cell number >= 90; NOT MET means relative cell number < 90.

Example cases with answers are listed next.
>>> classlabel("CC(C)n1c(/C=C/C(O)CC(O)CC(=O)O)c(-c2ccc(F)cc2)c2ccccc21 (configuration not stated)")
"MET"
>>> classlabel("O=C(O)CCCc1ccc(N(CCCl)CCCl)cc1")
"NOT MET"
>>> classlabel("Cc1ccc(NC(=O)c2ccc(CN3CCN(C)CC3)cc2)cc1Nc1nc(-c2cccnc2)cs1")
"NOT MET"
>>> classlabel("C#Cc1cccc(Nc2ncnc3cc(OCCOC)c(OCCOC)cc23)c1")
"NOT MET"
>>> classlabel("CN1C(=O)C(Cc2c[nH]c3ccccc23)NC1=S (configuration not stated)")
"NOT MET"

Record CN(C)CC[C@H](CSc1ccccc1)Nc1ccc(S(=O)(=O)NC(=O)c2ccc(N3CCN(Cc4ccccc4-c4ccc(Cl)cc4)CC3)cc2)cc1[N+](=O)[O-] ; criterion: relative cell number no lower than 90. Met?
MET

Record CC[C@H](Nc1ncnc2[nH]cnc12)c1nc2cccc(F)c2c(=O)n1-c1ccccc1 ; criterion: relative cell number no lower than 90. Met?
MET

Record Cc1ccccc1-n1c(Cn2cnc3c(N)ncnc32)nc2cccc(C)c2c1=O ; criterion: relative cell number no lower than 90. Met?
MET

Record CC(C)C[C@@H](C=O)NC(=O)[C@H](CC(C)C)NC(=O)[C@H](CC(C)C)NC(=O)OCc1ccccc1 ; criterion: relative cell number no lower than 90. Met?
MET

Record O=C(Nc1ccc([N+](=O)[O-])cc1Cl)c1cc(Cl)ccc1O [Niclosamide] ; criterion: relative cell number no lower than 90. Met?
MET

----------
For each of the compounds below, state its relative cell number.
System: BT-20
Assay: relative cell number vs DMSO control (72 h) (% of DMSO); higher = less growth inhibition (more cells)
Conditions: sgRNA knockout: sgNT, 100 nM
One number for each entry.

In the examples that follow, each entry is paired with its recorded relative cell number.
>>> val("O=C(O)C(Cc1c[nH]c2ccccc12)N1C(=O)c2ccccc2C1=O (stereo not given)")
70.3
>>> val("C=C1C[C@@H]2[C@H](CC[C@]3(C)C(=O)CC[C@@H]23)[C@@]2(C)C=CC(=O)C=C12")
89.5
>>> val("CN(C)/N=N/c1[nH]cnc1C(N)=O")
96.3
>>> val("CC(=O)Nc1nc(C)c(-c2ccc(Cl)c(S(=O)(=O)NCCO)c2)s1")
104

Alright, here's another compound for you.
# input compound: S=c1nc[nH]c2nc[nH]c12 ; wanted: its relative cell number
101

----------
Tested on: SKBR3
Assay: relative cell number vs DMSO control (72 h) (% of DMSO); higher = less growth inhibition (more cells)
Conditions: sgRNA knockout: sgNT, 100 nM
measuredEndpoint: relative cell number

>>> val("O=C(O)CCCc1ccc(N(CCCl)CCCl)cc1 [Chlorambucil]")
74.5
>>> val("CC(=O)O[C@H]1C(=O)[C@@]2(C)[C@H]([C@H](OC(=O)c3ccccc3)[C@]3(O)C[C@H](OC(=O)[C@H](O)[C@@H](NC(=O)c4ccccc4)c4ccccc4)C(C)=C1C3(C)C)[C@]1(OC(C)=O)CO[C@@H]1C[C@@H]2O [Paclitaxel]")
6.23
>>> val("CC(C)n1cnc2c(NCCc3ccc(O)cc3)nc(-c3csc4ccccc34)nc21 [StemRegenin1]")
108
>>> val("Nc1ccccc1NC(=O)c1ccc(CNC(=O)OCc2cccnc2)cc1 [Entinostat]")
102
>>> val("CO[C@H]1C[C@@H]2CC[C@@H](C)[C@@](O)(O2)C(=O)C(=O)N2CCCC[C@H]2C(=O)O[C@H]([C@H](C)C[C@@H]2CC[C@@H](OCCO)[C@H](OC)C2)CC(=O)[C@H](C)/C=C(\\C)[C@@H](O)[C@@H](OC)C(=O)[C@H](C)C[C@H](C)/C=C/C=C/C=C/1C [Everolimus]")
57.5
>>> val("O=C1c2c(O)ccc(O)c2C(=O)c2c(NCCNCCO)ccc(NCCNCCO)c21 [Mitoxantrone]")
22.3
>>> val("C[C@@]1(C(=O)Nc2ccc(F)nc2)CCCN1c1nc(Nc2cc(C3CC3)n[nH]2)c2cccn2n1")
89.9
>>> val("COc1cccc2c1C(=O)c1c(O)c3c(c(O)c1C2=O)C[C@@](O)(C(=O)CO)C[C@@H]3O[C@H]1C[C@H](N)[C@H](O)[C@H](C)O1 [Doxorubicin]")
34.4

Quick request: relative cell number for each listed item, please.
1. CC(C)(C)c1ccc(S(=O)(=O)NCc2ccc(C(=O)Nc3cccnc3)cc2)cc1 [STF31]
2. CC[C@H](C)C(=O)O[C@H]1C[C@@H](C)C=C2C=C[C@H](C)[C@H](CC[C@@H]3C[C@@H](O)CC(=O)O3)[C@H]21 [Lovastatin]
3. CCc1c2c(nc3ccc(O)cc13)-c1cc3c(c(=O)n1C2)COC(=O)[C@]3(O)CC [SN38]
4. CC(C)[C@]12O[C@H]1[C@@H]1O[C@]13[C@]1(O[C@H]1C[C@H]1C4=C(CC[C@@]13C)C(=O)OC4)[C@@H]2O [Triptolide]
5. C[C@]1(O)C[C@@H](c2nc(-c3ccc4ccc(-c5ccccc5)nc4c3)c3c(N)nccn32)C1 [Linsitinib]

[83.5, 81.1, 23.2, 12.4, 104]

# input compound: O=C(Cc1ccc(-c2ccc(OCCN3CCOCC3)cc2)cn1)NCc1ccccc1 [KX2391] ; wanted: its relative cell number
17.8

----------
System: HCC-38
Assay: relative cell number vs DMSO control (72 h) (% of DMSO); higher = less growth inhibition (more cells)
Conditions: sgRNA knockout: sgNT, 10000 nM
For each of the molecules below, state its relative cell number.
Answers are plain numbers.

In the examples that follow, each entry is paired with its recorded relative cell number.
>>> val("CCOc1ccccc1-n1c(C(C)N2CCN(C(=O)COc3ccc(Cl)cc3)CC2)nc2ccccc2c1=O (stereo unspecified) [Erastin]")
60.1
>>> val("Cc1cnc(Nc2ccc(OCCN3CCCC3)cc2)nc1Nc1cccc(S(=O)(=O)NC(C)(C)C)c1")
11.7
>>> val("CC(=O)Nc1cccc(-n2c(=O)n(C3CC3)c(=O)c3c(Nc4ccc(I)cc4F)n(C)c(=O)c(C)c32)c1 [Trametinib]")
71.3
>>> val("Nc1ccccc1NC(=O)c1ccc(CNC(=O)OCc2cccnc2)cc1 [Entinostat]")
36.8

Quick request: relative cell number for each listed item, please.
1. CC(=O)Nc1nc(C)c(-c2ccc(Cl)c(S(=O)(=O)NCCO)c2)s1 [PIK93]
2. CC[C@]1(O)C[C@H]2CN(CCc3c([nH]c4ccccc34)[C@@](C(=O)OC)(c3cc4c(cc3OC)N(C=O)[C@H]3[C@@](O)(C(=O)OC)[C@H](OC(C)=O)[C@]5(CC)C=CCN6CC[C@]43[C@@H]65)C2)C1 [Vincristine]
3. CC(C)(C)c1nc(-c2cccc(NS(=O)(=O)c3c(F)cccc3F)c2F)c(-c2ccnc(N)n2)s1 [Dabrafenib]
4. Cc1ccc(C(=O)N(CCCN)[C@@H](c2oc3cc(Cl)ccc3c(=O)c2Cc2ccccc2)C(C)C)cc1
5. CS(=O)(=O)CCNCc1ccc(-c2ccc3ncnc(Nc4ccc(OCc5cccc(F)c5)c(Cl)c4)c3c2)o1 [Lapatinib]

62.7
21.1
94.7
5.58
60.2

Quick request: relative cell number for each listed item, please.
1. Cc1cn(-c2cc(NC(=O)c3ccc(C)c(Nc4nccc(-c5cccnc5)n4)c3)cc(C(F)(F)F)c2)cn1 [Nilotinib]
2. Oc1cccc(-c2nc(N3CCOCC3)c3oc4ncccc4c3n2)c1 [PI103]
3. COc1cc2nccc(Oc3ccc(NC(=O)C4(C(=O)Nc5ccc(F)cc5)CC4)cc3)c2cc1OC [Cabozantinib]
4. CC(C)(C)OC(=O)CN(Cc1ccc(Cl)cc1)Cc1ccc([N+](=O)[O-])s1 [GSK4112]

1. 93.7
2. 31.4
3. 61.9
4. 96.5

Quick request: relative cell number for each listed item, please.
1. Cc1ccc(S(=O)(=O)OCC(=O)Nc2ccc(C(=O)O)c(O)c2)cc1
2. CS(=O)(=O)N1CCN(Cc2cc3nc(-c4cccc5[nH]ncc45)nc(N4CCOCC4)c3s2)CC1 [GDC0941]
3. COc1cc(-n2c(=S)[nH]c3ccccc3c2=O)c(Cl)cc1Cl [Mdivi1]

[89.6, 33.5, 83.1]
